Each recorded value in this set is attributed to patent US20080234291A1.

# EXPERIMENT_SUMMARY: solubility of mitratapide in different pharmaceutical solvents
# Type: physicochemical
# SETTINGS: propylene glycol monolaurate (Lauroglycol), oil or lipid; Dropylene glycol monolaurate (Lauroglycol ®); about 22° C.
OBSERVATION_TYPE: solubility

COMPOUND	RESULT
CCC(C)n1ncn(-c2ccc(N3CCN(c4ccc(OCC5COC(CSc6nncn6C)(c6ccc(Cl)cc6)O5)cc4)CC3)cc2)c1=O (stereo not shown) [mitratapide]	> 5000 µg/mL

====

# EXPERIMENT_SUMMARY: solubility of mitratapide in different pharmaceutical solvents
# Type: physicochemical
# SETTINGS: oil or lipid; sesame oil; about 22° C.

COMPOUND	solubility
CCC(C)n1ncn(-c2ccc(N3CCN(c4ccc(OCC5COC(CSc6nncn6C)(c6ccc(Cl)cc6)O5)cc4)CC3)cc2)c1=O (stereo not shown) [mitratapide]	< 50 µg/mL

====

# EXPERIMENT_SUMMARY: solubility of mitratapide in different pharmaceutical solvents
# Type: physicochemical
# SETTINGS: oil or lipid; caprylic/capric/succinic acid triglyceride (Miglyol 829 ®); about 22° C.

COMPOUND	solubility
CCC(C)n1ncn(-c2ccc(N3CCN(c4ccc(OCC5COC(CSc6nncn6C)(c6ccc(Cl)cc6)O5)cc4)CC3)cc2)c1=O (stereo not shown) [mitratapide]	< 5000 µg/mL

====

# EXPERIMENT_SUMMARY: solubility of mitratapide in different pharmaceutical solvents
# Assay type: physicochemical
# SETTINGS: oil or lipid; apricot Kernel oil PEG-6 complex (Labrafil 1944CS ®); about 22° C.
OBSERVATION_TYPE: solubility

COMPOUND	RESULT
CCC(C)n1ncn(-c2ccc(N3CCN(c4ccc(OCC5COC(CSc6nncn6C)(c6ccc(Cl)cc6)O5)cc4)CC3)cc2)c1=O (stereo not shown) [mitratapide]	< 5000 µg/mL

====

# EXPERIMENT_SUMMARY: solubility of mitratapide in different pharmaceutical solvents
# Assay type: physicochemical
# SETTINGS: organic solvent or mixture; dimethyl isosorbide (2,5-di-O-methyl-1,4:3,6-dianhydro D-glucitol); about 22° C.

COMPOUND	solubility
CCC(C)n1ncn(-c2ccc(N3CCN(c4ccc(OCC5COC(CSc6nncn6C)(c6ccc(Cl)cc6)O5)cc4)CC3)cc2)c1=O (stereo not shown) [mitratapide]	> 5000 µg/mL

====

# EXPERIMENT_SUMMARY: solubility of mitratapide in different pharmaceutical solvents
# Type: physicochemical
# SETTINGS: oil or lipid; corn oil PEG-6 complex (Labrafil 2125CS ®); about 22° C.
OBSERVATION_TYPE: solubility

COMPOUND	RESULT
CCC(C)n1ncn(-c2ccc(N3CCN(c4ccc(OCC5COC(CSc6nncn6C)(c6ccc(Cl)cc6)O5)cc4)CC3)cc2)c1=O (stereo not shown) [mitratapide]	< 5000 µg/mL

====

# EXPERIMENT_SUMMARY: solubility of mitratapide in different pharmaceutical solvents
# Format: physicochemical
# SETTINGS: oil or lipid; caprylic/capric diester of propylene glycol; about 22° C.

COMPOUND	solubility
CCC(C)n1ncn(-c2ccc(N3CCN(c4ccc(OCC5COC(CSc6nncn6C)(c6ccc(Cl)cc6)O5)cc4)CC3)cc2)c1=O (stereo not shown) [mitratapide]	< 5000 µg/mL
